Recorded values, source patent US20220040129A1.

Experiment: CARIV-A-001 Part B: cross-over IV infusion over 2 hours vs oral tablet 100 mg/kg in healthy subjects
Format: in vivo, human
Conditions: both sexes, human, plasma, iv, 8 mg/kg, IV, 8 mg/kg, N 10; read-out: Cmax, Median
outcome_measure: Cmax (ng/mL)
Give bare numbers, in ng/mL.

Specify reported Cmax for the compound shown: NC(=O)N[C@@H](CCC(=O)O)C(=O)O 8760

====

Assay: CARIV-A-001 Part A: single ascending IV doses over 20 minutes in healthy subjects
Type: in vivo, human
Conditions: both sexes, human, plasma, iv, 3.5 mg/kg, IV over 20 minutes, 3.5 mg/kg; read-out: Clearance (Cl), Range
outcome_measure: clearance

Specify reported clearance for the molecule shown: NC(=O)N[C@@H](CCC(=O)O)C(=O)O [carglumic acid, N-carbamoyl-L-glutamic acid] 4.67 to 6 mL/min/kg
